- measured_on: Human GLP-1 receptor (Homo sapiens, UniProt P43220)
- Construct: expressed in transfected cells
- Sequence (P43220 24-463): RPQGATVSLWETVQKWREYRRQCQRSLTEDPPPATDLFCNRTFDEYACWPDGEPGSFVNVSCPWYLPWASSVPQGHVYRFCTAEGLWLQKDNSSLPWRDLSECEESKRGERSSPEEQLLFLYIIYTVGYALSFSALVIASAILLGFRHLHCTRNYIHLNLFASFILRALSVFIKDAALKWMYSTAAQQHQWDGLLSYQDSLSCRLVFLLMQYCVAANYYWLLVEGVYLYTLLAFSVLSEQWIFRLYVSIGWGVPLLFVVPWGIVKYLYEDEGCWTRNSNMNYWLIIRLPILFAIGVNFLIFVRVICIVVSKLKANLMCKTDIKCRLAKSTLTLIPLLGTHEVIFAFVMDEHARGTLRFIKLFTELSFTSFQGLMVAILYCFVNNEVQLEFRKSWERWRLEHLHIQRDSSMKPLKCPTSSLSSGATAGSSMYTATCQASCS
- procedure_summary: Measurement of GLP-1 receptor agonist activity (cAMP assay)
- Type: cell-based
- measurement_conditions: CHO-K1, maximum effect, cAMP increase in GLP-1 R/CHO-K1 cells; 2 nM human GLP-1 (7-36) = 100%, DMSO only = 0%; read-out: Emax
property_label: Emax (%)
Please reply with the bare figure in % and do not write the unit itself.

The following molecules have reported results that may help.
Give Emax for C[C@H]1c2nc(OCc3ccc(C#N)cc3F)c(C(F)(F)F)cc2CCN1Cc1nc2ccc(C(=O)O)cc2n1C[C@@H]1CCO1 [Compound I-258]
107

Give Emax for O=C(O)c1ccc2nc(CN3CCc4cc(C(F)(F)F)c(OCc5cc(F)c(Cl)cc5F)nc4C3)n(C[C@@H]3CCO3)c2c1 [Compound I-278]
109

Give Emax for C[C@H]1c2nc(OCc3c(F)cc(F)cc3F)c(C(F)(F)F)cc2CCN1Cc1nc2ccc(C(=O)O)nc2n1C[C@@H]1CCO1 [Compound I-292]
121

Give Emax for O=C(O)c1ccc2nc(CN3CCc4cc(C(F)(F)F)c(OCc5ccc(F)cc5F)nc4C3)n(C[C@@H]3CCO3)c2c1F [Compound I-297]
102

Give Emax for COc1cc(Cl)ccc1COc1nc2c(cc1C(F)(F)F)CCN(Cc1nc3c(OC)cc(C(=O)O)cc3n1C[C@@H]1CCO1)[C@H]2C [Compound I-376]
106

Give Emax for C[C@H]1c2cc(OCc3ccc(Cl)cc3Cl)c(Cl)cc2CCN1Cc1nc2ccc(C(=O)O)c(F)c2n1C[C@@H]1CCO1 [Compound I-325]
105

Continuing:
Give Emax for COc1cc(C(=O)O)cc2c1nc(CN1CCc3cc(C(F)(F)F)c(OCc4ccc(Cl)cc4Cl)cc3[C@@H]1C)n2C[C@@H]1CCO1 [Compound I-232]
117

Give Emax for C[C@H]1c2nc(OCc3ccc(Cl)cn3)c(C(F)(F)F)cc2CCN1Cc1nc2ccc(C(=O)O)cc2n1C[C@@H]1CCO1 [Compound I-247]
121

Give Emax for COc1cc(C(=O)O)cc2c1nc(CN1CCc3cc(Cl)c(OCc4cc(F)c(Cl)cc4F)cc3[C@@H]1C)n2C[C@@H]1CCO1 [Compound I-346]
117

====

- measured_on: Human GLP-1 receptor (Homo sapiens, UniProt P43220)
- Construct: expressed in transfected cells
- procedure_summary: Measurement of GLP-1 receptor agonist activity (cAMP assay)
- Format: cell-based
- measurement_conditions: CHO-K1, maximum effect, cAMP increase in GLP-1 R/CHO-K1 cells; 2 nM human GLP-1 (7-36) = 100%, DMSO only = 0%; read-out: Emax
property_label: Emax

Give Emax for N#Cc1ccc(COc2nc3c(cc2C(F)(F)F)CCN(Cc2nc4ccc(C(=O)O)cc4n2C[C@@H]2CCO2)C3)c(F)c1
118%

Continuing:
Give Emax for C[C@H]1c2cc(OCc3ccc(Cl)cc3Cl)c(Cl)cc2CCN1Cc1nc2ccc(C(=O)O)nc2n1C[C@@H]1CCO1
117%

====

- measured_on: Human GLP-1 receptor (Homo sapiens, UniProt P43220)
- Construct: expressed in transfected cells
- procedure_summary: Measurement of GLP-1 receptor agonist activity (cAMP assay)
- Format: cell-based
- measurement_conditions: CHO-K1, hGLP-1R/CHO-K1 cells, cAMP; 100% = human GLP-1 (7-36) at 2 nM, 0% = DMSO only; read-out: Emax(%)
property_label: Emax
Write the numeric value and append its unit.

The following compounds have reported results that may help.
Give Emax for C[C@H]1c2cc(OCc3ccc(C#N)cc3F)c(C(F)(F)F)cc2CCN1Cc1nc2ccc(C(=O)O)c(F)c2n1C[C@@H]1CCO1 [Compound I-219]
114%

Give Emax for C[C@H]1c2cc(OCc3ccccc3Cl)c(C(F)(F)F)cc2CCN1Cc1nc2c(F)cc(C(=O)O)cc2n1C[C@@H]1CCO1 [Compound I-209]
112%

Give Emax for O=C(O)c1ccc2nc(CN3CCc4cc(C(F)(F)F)c(OCc5ccc(OC(F)F)c(F)c5)cc4C3)n(C[C@@H]3CCO3)c2c1 [Compound I-143]
101%

Continuing:
Give Emax for C[C@H]1c2cc(OCc3ccc(Cl)cn3)c(C(F)(F)F)cc2CCN1Cc1nc2ccc(C(=O)O)nc2n1C[C@@H]1CCO1 [Compound I-176]
98.3%

Give Emax for Cn1cc(COc2cc3c(cc2C(F)(F)F)CCN(Cc2nc4ccc(C(=O)O)cc4n2C[C@@H]2CCO2)C3)cn1 [Compound I-071]
114%

Give Emax for Cc1csc(COc2cc3c(cc2C(F)(F)F)CCN(Cc2nc4ccc(C(=O)O)cc4n2C[C@@H]2CCO2)[C@H]3C)n1 [Compound I-173]
102%

Give Emax for C[C@H]1c2cc(OCc3ccc(Cl)cc3)c(C(F)(F)F)cc2CCN1Cc1nc2ccc(C(=O)O)cc2n1C[C@@H]1CCO1 [Compound I-161]
110%

Give Emax for COc1ccc(COc2cc3c(cc2C(F)(F)F)CCN(Cc2nc4ccc(C(=O)O)c(F)c4n2C[C@@H]2CCO2)[C@H]3C)cc1 [Compound I-190]
109%

Entry source: patent US20240217966A1
